# Assay explanation: Metabolic stability in rat liver microsomes assessed as compound remaining at 0.5 uM incubated for 10 mins
# Assay type: ADME, Microsome
# Experimental conditions: read-out: Stability
Readout type: remaining at 10 min, 0.5 µM

What does the record list as remaining at 10 min, 0.5 µM for NS(=O)(=O)NCc1nnc(C(=O)c2nc3cc(F)c(C(=O)NCC(F)(F)F)cc3s2)o1 ?
> 80%

====

# Assay explanation: Metabolic stability in human liver microsomes assessed as compound remaining at 0.5 uM incubated for 10 mins
# Format: ADME, Microsome
# Experimental conditions: read-out: Stability
Consider the following compounds and their measured remaining at 10 min, 0.5 µM readings.
Write the value in % as a bare number.

What does the record list as remaining at 10 min, 0.5 µM for NS(=O)(=O)NCc1nnc(C(=O)c2nc3cc(F)c(C(=O)NCC(F)(F)F)cc3s2)o1 ?
87

Please find the next compound below.
What does the record list as remaining at 10 min, 0.5 µM for NS(=O)(=O)NCc1nnc(C(=O)c2nc3cc(-c4ccc(C(=O)NCC(F)(F)F)cc4)c(F)cc3s2)o1 ?
98

====

# Assay system: Hepatic triacylglycerol lipase (Homo sapiens, UniProt P11150)
# Sequence (P11150 whole entry): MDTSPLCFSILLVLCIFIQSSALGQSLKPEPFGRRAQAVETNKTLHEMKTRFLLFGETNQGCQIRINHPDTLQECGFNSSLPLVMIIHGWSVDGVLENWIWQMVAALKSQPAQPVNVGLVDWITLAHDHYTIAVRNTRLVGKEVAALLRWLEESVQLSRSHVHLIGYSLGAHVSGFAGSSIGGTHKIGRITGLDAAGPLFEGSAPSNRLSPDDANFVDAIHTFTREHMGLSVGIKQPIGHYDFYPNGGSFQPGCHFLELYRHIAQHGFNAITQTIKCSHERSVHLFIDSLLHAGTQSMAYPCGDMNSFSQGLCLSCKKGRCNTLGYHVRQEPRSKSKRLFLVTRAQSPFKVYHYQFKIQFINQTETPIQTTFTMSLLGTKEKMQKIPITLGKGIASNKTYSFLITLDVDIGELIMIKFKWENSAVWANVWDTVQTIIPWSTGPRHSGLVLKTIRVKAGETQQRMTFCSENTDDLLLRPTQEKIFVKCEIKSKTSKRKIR
# Assay explanation: Inhibition of human HL […] using A10070 as substrate preincubated for 20 min followed by DMPG vesicle doped substrate addition and measured at 20 secs interval for 10 mins by fluorescence assay
Readout type: pIC50
Conceptually, pIC50 converts a concentration in mol/L into minus its log10.

Sample answers from the record:
What does the record list as pIC50 for NS(=O)(=O)NCc1nnc(C(=O)c2nc3cc(F)c(C(=O)NCC(F)(F)F)cc3s2)o1 ?
8.40

What does the record list as pIC50 for CN(Cc1nnc(C(=O)c2nc3ccc(-c4ccccc4)cc3s2)o1)S(N)(=O)=O ?
8.52

Please find the next compound below.
What does the record list as pIC50 for NS(=O)(=O)NCc1nnc(C(=O)c2nc3cc(-c4ccc(C(=O)NCC(F)(F)F)cc4)c(F)cc3s2)o1 ?
8.40

====

# Assay explanation: Plasma concentration in C57BL/6 mouse at 50 mg/kg, ip administered as nanosuspension measured after 24 hrs by LC-MS/MS analysis
# Assay type: ADME, organism-based
Readout type: concentration at 24 h (nM)
Write the value in nM as a bare number.

Sample answers from the record:
What does the record list as concentration at 24 h for NS(=O)(=O)NCc1nnc(C(=O)c2nc3cc(F)c(C(=O)NCC(F)(F)F)cc3s2)o1 ?
250

What does the record list as concentration at 24 h for NS(=O)(=O)NCc1nnc(C(=O)c2nc3cc(-c4ccc5c(c4)CNC5=O)c(F)cc3s2)o1 ?
460

Please find the next compound below.
What does the record list as concentration at 24 h for NS(=O)(=O)NCc1nnc(C(=O)c2nc3ccc(-c4ccccc4)cc3s2)o1 ?
500

====

Consider the following molecules and their measured pIC50 readings.
# Assay system: Endothelial lipase (Homo sapiens, UniProt Q9Y5X9)
# Sequence (Q9Y5X9 whole entry): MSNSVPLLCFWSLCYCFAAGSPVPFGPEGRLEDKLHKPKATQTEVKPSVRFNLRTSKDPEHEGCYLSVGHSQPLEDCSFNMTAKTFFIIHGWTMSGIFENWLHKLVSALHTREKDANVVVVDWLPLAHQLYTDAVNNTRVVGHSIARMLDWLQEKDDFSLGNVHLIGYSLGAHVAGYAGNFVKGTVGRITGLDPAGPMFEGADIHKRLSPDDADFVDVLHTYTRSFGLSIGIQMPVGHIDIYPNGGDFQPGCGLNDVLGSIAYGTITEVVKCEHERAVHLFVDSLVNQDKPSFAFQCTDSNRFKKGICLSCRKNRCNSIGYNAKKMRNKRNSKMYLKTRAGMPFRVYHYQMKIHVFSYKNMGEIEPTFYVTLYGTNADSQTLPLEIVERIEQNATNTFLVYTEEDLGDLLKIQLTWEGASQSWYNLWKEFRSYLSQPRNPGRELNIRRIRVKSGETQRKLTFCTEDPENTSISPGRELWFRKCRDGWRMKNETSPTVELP
# Assay explanation: Inhibition of EL in human HT1080 cells using D31-POPC-HDL as substrate incubated for 2 hrs in presence of human serum by LC/MS analysis
# Format: cell-based
Conceptually, pIC50 converts a concentration in mol/L into minus its log10.

Sample answers from the record:
What does the record list as pIC50 for NC(=O)NCc1nnc(C(=O)c2nc3ccc(-c4ccccc4)cc3s2)o1 ?
6.00

What does the record list as pIC50 for CN(Cc1nnc(C(=O)c2nc3ccc(-c4ccccc4)cc3s2)o1)S(N)(=O)=O ?
5.15

What does the record list as pIC50 for NS(=O)(=O)NCc1nnc(C(=O)c2nc3cc(F)c(C(=O)NCC(F)(F)F)cc3s2)o1 ?
7.30

Further cases:
What does the record list as pIC50 for NS(=O)(=O)NCc1nnc(C(=O)c2nc3cc(-c4ccc(C(=O)NCC(F)(F)F)cc4)c(F)cc3s2)o1 ?
6.70

====

Consider the following compounds and their measured pIC50 readings.
# Assay system: Endothelial lipase (Homo sapiens)
# Assay explanation: Inhibition of EL in human HT1080 cells using A10070 as substrate preincubated for 20 min followed by DMPG vesicle doped substrate addition and measured at 20 secs interval for 10 mins by fluorescence assay
# Format: cell-based
Conceptually, pIC50 converts a concentration in mol/L into minus its log10.

What does the record list as pIC50 for CN(Cc1nnc(C(=O)c2nc3ccc(-c4ccccc4)cc3s2)o1)S(N)(=O)=O ?
7.70

Please find the next compound below.
What does the record list as pIC50 for NC(=O)NCc1nnc(C(=O)c2nc3ccc(-c4ccccc4)cc3s2)o1 ?
7.52

====

Consider the following molecules and their measured pIC50 readings.
# Assay system: Endothelial lipase (Homo sapiens, UniProt Q9Y5X9)
# Assay explanation: Inhibition of EL in human HT1080 cells using D31-POPC-HDL as substrate incubated for 2 hrs in presence of mouse plasma by LC/MS analysis
# Format: cell-based
Conceptually, pIC50 converts a concentration in mol/L into minus its log10.

What does the record list as pIC50 for NC(=O)NCc1nnc(C(=O)c2nc3ccc(-c4ccccc4)cc3s2)o1 ?
6.00

Please find the next molecule below.
What does the record list as pIC50 for CN(Cc1nnc(C(=O)c2nc3ccc(-c4ccccc4)cc3s2)o1)S(N)(=O)=O ?
6.00

====

# Assay explanation: Plasma concentration in C57BL/6 mouse at 50 mg/kg, ip qd administered as nanosuspension for 2 days measured 6 hrs post-last dose by LC-MS/MS analysis
# Type: ADME, organism-based
Readout type: concentration at 6 h (nM)
Write the value in nM as a bare number.

What does the record list as concentration at 6 h for NS(=O)(=O)NCc1nnc(C(=O)c2nc3ccc(-c4ccccc4)cc3s2)o1 ?
520

====

# Assay explanation: Plasma concentration in EL knock out C57BL/6 mouse at 50 mg/kg, ip qd administered as nanosuspension for 2 days measured 6 hrs post-last dose by LC-MS/MS analysis
# Assay type: ADME, organism-based
Readout type: concentration at 6 h (µM)
Write the value in µM as a bare number.

What does the record list as concentration at 6 h for NS(=O)(=O)NCc1nnc(C(=O)c2nc3ccc(-c4ccccc4)cc3s2)o1 ?
8.5

====

# Assay system: UniProtKB Q9WVG5
# Sequence (Q9WVG5 whole entry): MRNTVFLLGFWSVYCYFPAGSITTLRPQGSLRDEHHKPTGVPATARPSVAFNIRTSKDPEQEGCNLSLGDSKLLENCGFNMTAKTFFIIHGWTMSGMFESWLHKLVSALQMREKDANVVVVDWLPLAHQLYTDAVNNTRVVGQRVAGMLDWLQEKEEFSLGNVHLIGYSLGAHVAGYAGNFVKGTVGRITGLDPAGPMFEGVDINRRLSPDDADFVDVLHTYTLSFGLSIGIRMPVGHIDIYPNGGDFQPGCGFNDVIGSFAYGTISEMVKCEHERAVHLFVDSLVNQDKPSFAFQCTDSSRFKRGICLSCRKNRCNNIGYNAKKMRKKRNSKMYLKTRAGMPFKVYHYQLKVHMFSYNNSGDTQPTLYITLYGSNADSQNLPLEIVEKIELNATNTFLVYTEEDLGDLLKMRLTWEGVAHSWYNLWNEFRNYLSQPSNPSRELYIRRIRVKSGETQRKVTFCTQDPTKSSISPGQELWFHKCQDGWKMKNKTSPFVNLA
# Assay explanation: Inhibition of endothelial lipase in hepatic lipase knock-out mouse plasma
Readout type: IC50 (nM)
Write the value in nM as a bare number.

Query IC50 on UniProtKB Q9WVG5 for NS(=O)(=O)NCc1nnc(C(=O)c2nc3cc(-c4ccc(C(=O)NCC(F)(F)F)cc4)c(F)cc3s2)o1
200

Please find the next compound below.
Query IC50 on UniProtKB Q9WVG5 for NS(=O)(=O)NCc1nnc(C(=O)c2nc3cc(F)c(C(=O)NCC(F)(F)F)cc3s2)o1
200

====

# Assay explanation: Plasma concentration in C57BL/6 mouse at 50 mg/kg, po measured after 24 hrs by LC-MS/MS analysis
# Type: ADME, organism-based
Readout type: concentration at 24 h (nM)
Write the value in nM as a bare number.

What does the record list as concentration at 24 h for NS(=O)(=O)NCc1nnc(C(=O)c2nc3ccc(-c4ccccc4)cc3s2)o1 ?
250

====

Consider the following compounds and their measured remaining at 10 min, 0.5 µM readings.
# Assay explanation: Metabolic stability in mouse liver microsomes assessed as compound remaining at 0.5 uM incubated for 10 mins
# Format: ADME, Microsome
# Experimental conditions: read-out: Stability

What does the record list as remaining at 10 min, 0.5 µM for NS(=O)(=O)NCc1nnc(C(=O)c2nc3cc(F)c(C(=O)NCC(F)(F)F)cc3s2)o1 ?
> 80%

Please find the next compound below.
What does the record list as remaining at 10 min, 0.5 µM for NS(=O)(=O)NCc1nnc(C(=O)c2nc3cc(-c4ccc(C(=O)NCC(F)(F)F)cc4)c(F)cc3s2)o1 ?
100%

====

# Assay explanation: AUC (0 to 24 hrs) in C57BL/6 mouse at 50 mg/kg, ip administered as nanosuspension measured after 24 hrs by LC-MS/MS analysis
# Type: ADME, organism-based
# Design: dose 50 mg/kg, time < 24 hr, route intraperitoneal
# Experimental conditions: in vivo
Readout type: AUC(0-t) at 24 h

What does the record list as AUC(0-t) at 24 h for NS(=O)(=O)NCc1nnc(C(=O)c2nc3cc(F)c(C(=O)NCC(F)(F)F)cc3s2)o1 ?
58 µM·h
